Recorded residual activity for the following compounds
System: PDPK1 (human) (UniProt O15530)
Sequence (O15530 whole entry, looked up): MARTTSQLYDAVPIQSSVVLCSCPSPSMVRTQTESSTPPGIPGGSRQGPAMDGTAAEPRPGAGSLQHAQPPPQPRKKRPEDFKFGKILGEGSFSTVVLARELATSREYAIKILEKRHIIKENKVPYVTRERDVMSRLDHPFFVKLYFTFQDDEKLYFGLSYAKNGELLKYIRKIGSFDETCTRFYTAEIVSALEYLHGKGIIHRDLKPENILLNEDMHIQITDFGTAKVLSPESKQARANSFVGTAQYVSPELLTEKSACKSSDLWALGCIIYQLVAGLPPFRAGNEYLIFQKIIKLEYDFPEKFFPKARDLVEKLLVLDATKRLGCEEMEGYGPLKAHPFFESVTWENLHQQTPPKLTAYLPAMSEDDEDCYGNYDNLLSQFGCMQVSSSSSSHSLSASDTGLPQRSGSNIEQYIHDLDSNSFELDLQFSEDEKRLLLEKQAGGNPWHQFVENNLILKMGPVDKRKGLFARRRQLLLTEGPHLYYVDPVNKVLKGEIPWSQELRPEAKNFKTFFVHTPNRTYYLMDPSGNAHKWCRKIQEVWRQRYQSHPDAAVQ
Protocol text: radiometric filter-binding kinase assay, Kinase HotSpot
Test parameters: compound 0.5 µM; ATP 10 µM

>  <Structure smiles>
O=C1NC(=O)c2c1c1c3ccccc3[nH]c1n1cncc21

>  <residual activity (%)>
89

$$$$
>  <Structure smiles>
COc1cc2ncnc(Nc3ccc(OCc4ccccc4)cc3)c2cc1OC

>  <residual activity (%)>
103

$$$$
>  <Structure smiles>
C[C@@H]1CCN(C(=O)CC#N)C[C@@H]1N(C)c1ncnc2[nH]ccc12

>  <residual activity (%)>
94.1

$$$$
>  <Structure smiles>
Cc1cncc2cccc(S(=O)(=O)N3CCCN(C(=O)CN)C[C@H]3C)c12

>  <residual activity (%)>
97.8

$$$$
>  <Structure smiles>
CN(C)c1ccc(/C=C2\C(=O)Nc3ccccc32)cc1

>  <residual activity (%)>
82.3

$$$$
>  <Structure smiles>
Ic1cccc(CSc2nnc(-c3ccncc3)o2)c1

>  <residual activity (%)>
98.3

$$$$

----------
System: UniProtKB Q96NX5
Sequence (Q96NX5 whole entry, looked up): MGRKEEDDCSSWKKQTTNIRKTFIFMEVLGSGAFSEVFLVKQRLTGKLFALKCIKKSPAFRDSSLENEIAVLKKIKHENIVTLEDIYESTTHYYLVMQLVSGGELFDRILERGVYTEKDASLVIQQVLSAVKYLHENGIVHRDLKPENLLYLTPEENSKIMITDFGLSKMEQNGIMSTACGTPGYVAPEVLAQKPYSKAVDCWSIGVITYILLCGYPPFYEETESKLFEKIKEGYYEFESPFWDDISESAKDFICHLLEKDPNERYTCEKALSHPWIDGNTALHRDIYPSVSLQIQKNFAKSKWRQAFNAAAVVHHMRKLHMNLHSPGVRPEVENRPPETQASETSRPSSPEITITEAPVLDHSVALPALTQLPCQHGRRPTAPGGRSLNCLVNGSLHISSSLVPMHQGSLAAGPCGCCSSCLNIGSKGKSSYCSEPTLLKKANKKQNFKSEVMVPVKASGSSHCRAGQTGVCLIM
Protocol text: radiometric filter-binding kinase assay, Kinase HotSpot
Test parameters: compound 0.5 µM; ATP 10 µM
Recorded residual activity for the following compounds
Quantity measured: residual activity (%)

>  <Structure smiles>
COc1ccc2c(c1)c(C1=C(c3c[nH]c4ccccc34)C(=O)NC1=O)cn2CCCN(C)C

>  <Recorded measurement>
95

$$$$
>  <Structure smiles>
O=C1NC(=O)c2c1c1c3ccccc3[nH]c1n1cncc21

>  <Recorded measurement>
94.7

$$$$
>  <Structure smiles>
O=C(c1cc2cc(O)ccc2[nH]1)c1cc2cc(O)ccc2[nH]1

>  <Recorded measurement>
101

$$$$
>  <Structure smiles>
CC(C)(C)c1cc(C=C(C#N)C#N)cc(Br)c1O

>  <Recorded measurement>
104

$$$$
>  <Structure smiles>
O=C1c2ccccc2-c2nc3nnnn3nc21

>  <Recorded measurement>
28.5

$$$$
>  <Structure smiles>
Fc1ccc(-c2nc3n(c2-c2ccncc2)CCS3)cc1

>  <Recorded measurement>
95.2

$$$$
>  <Structure smiles>
COc1cc2ncnc(Nc3ccc(Oc4ccccc4)cc3)c2cc1OC

>  <Recorded measurement>
101

$$$$
>  <Structure smiles>
COc1ccc(S(=O)(=O)N(CCO)c2ccccc2CN(C)C/C=C/c2ccc(Cl)cc2)cc1

>  <Recorded measurement>
101

$$$$
>  <Structure smiles>
O=C1C(Cl)=C(N2C(=O)CCC2=O)C(=O)c2ccccc21

>  <Recorded measurement>
98.2

$$$$
>  <Structure smiles>
CN(C)CCCn1cc(C2=C(c3c[nH]c4ccccc34)C(=O)NC2=O)c2ccccc21

>  <Recorded measurement>
97.4

$$$$
>  <Structure smiles>
COc1ccc(C(=O)Nc2sc3c(c2C(N)=O)CCCC3)cc1OC

>  <Recorded measurement>
99.4

$$$$
>  <Structure smiles>
COc1cc2ncnc(Nc3ccc(OCc4ccccc4)cc3)c2cc1OC

>  <Recorded measurement>
97.1

$$$$
>  <Structure smiles>
O=C1Nc2ccc(Br)cc2/C1=C\c1cc2c([nH]1)CCCC2

>  <Recorded measurement>
103

$$$$
>  <Structure smiles>
COc1ccc2c(c1)/C(=C/c1cnc[nH]1)C(O)=N2

>  <Recorded measurement>
95.6

$$$$
>  <Structure smiles>
N#Cc1c[nH]c2c[nH]/c(=N\Cc3cccnc3)cc2/c1=N\c1ccc(F)c(Cl)c1

>  <Recorded measurement>
96.1

$$$$
>  <Structure smiles>
Cc1nc(-c2ccccc2)c(-c2ccncc2)o1

>  <Recorded measurement>
92.8

$$$$
>  <Structure smiles>
Cn1c2ccccc2c2c3c(c4c5ccccc5n(CCC#N)c4c21)CNC3=O

>  <Recorded measurement>
101

$$$$
>  <Structure smiles>
Cc1cccc(-c2nc(C(C)(C)C)[nH]c2-c2ccc3c(c2)OCO3)n1

>  <Recorded measurement>
98.7

$$$$
>  <Structure smiles>
COc1cc(Nc2c(C#N)cnc3cc(OCCCN4CCN(C)CC4)c(OC)cc23)c(Cl)cc1Cl

>  <Recorded measurement>
82.7

$$$$
>  <Structure smiles>
N#C/C(=C\c1ccc(O)c(O)c1)C(=O)NCc1ccccc1

>  <Recorded measurement>
98.7

$$$$
>  <Structure smiles>
Ic1cccc(CSc2nnc(-c3ccncc3)o2)c1

>  <Recorded measurement>
95.9

$$$$
>  <Structure smiles>
CN(C)c1ccc(/C=C2\C(=O)Nc3ccccc32)cc1

>  <Recorded measurement>
99.9

$$$$
>  <Structure smiles>
C[C@@H]1CCN(C(=O)CC#N)C[C@@H]1N(C)c1ncnc2[nH]ccc12

>  <Recorded measurement>
97.8

$$$$
>  <Structure smiles>
NC(=O)c1cccc(-c2cc(Nc3ccc(OC(F)(F)F)cc3)ncn2)c1

>  <Recorded measurement>
98.1

$$$$
>  <Structure smiles>
CCCCc1c(-c2ccc(OC)cc2)[nH]c2nccnc12

>  <Recorded measurement>
102

$$$$

Hey, just so you know, these numbers are from the kinase profiling compilation of Christmann-Franck et al. (2016).
